Tested on: human cancer cell lines PC3, U-373MG, BxPC3, LoVo, A549 and MCF-7
Test: MTT test, effect on overall cell growth (mean of six cell lines, examples 27 to 45)
Type: cell-based
Details: mean of six cell lines PC3, U-373MG, A549, MCF-7, 72 hours incubation, range of molar concentrations resulting in 50% inhibition of overall tumor cells growth
Catalogue of IC50 readings, one per entry.

// worked examples, IC50 included
CN(C)CCN1C(=O)c2cccc3cc4cccc(NC(=S)Nc5ccccc5OC(F)(F)F)c4c(c23)C1=O [Example 45] | > 10 µM
CN(C)CCN1C(=O)c2cccc3cc4cccc(NC(=S)Nc5ccc6nsnc6c5)c4c(c23)C1=O [Example 43] | 1 to 5 µM
COCCNC(=S)Nc1cccc2cc3cccc4c3c(c12)C(=O)N(CCN(C)C)C4=O [Example 32] | 5 to 10 µM
CCNC(=S)Nc1cccc2cc3cccc4c3c(c12)C(=O)N(CCN(C)C)C4=O [Example 35] | > 10 µM
COc1ccccc1NC(=S)Nc1cccc2cc3cccc4c3c(c12)C(=O)N(CCN(C)C)C4=O [Example 37] | > 10 µM

Task: Sample CCCCOC(=O)Nc1cccc2cc3cccc4c3c(c12)C(=O)N(CCN(C)C)C4=O [Example 29] — what was its IC50?
Result: > 10 µM

Task: Sample CN(C)CCN1C(=O)c2cccc3cc4cccc(NC(=S)Nc5ccc(Br)cc5OC(F)(F)F)c4c(c23)C1=O [Example 39] — what was its IC50?
Result: > 10 µM

Task: Sample CC(C)COC(=O)Nc1cccc2cc3cccc4c3c(c12)C(=O)N(CCN(C)C)C4=O [Example 27] — what was its IC50?
Result: > 10 µM
